# assaySummary: Toxicity in RBC assessed as hemolysis
# Assay type: cell-based, Erythrocyte
# assayConditions: erythrocyte
assayMetric: HC10

* CCCCCCCCCCCCCCCC(=O)NCCN(C(=O)CCc1ccccc1)[C@@H](CCCCN)C(=O)NCCN(C(=O)CCc1ccccc1)[C@@H](CCCCN)C(N)=O | > 500 µg/mL
* CCCCCCCCCCCCCCCC(=O)NCCN(C(=O)CCc1ccccc1)[C@@H](CCCCN)C(=O)NCCN(C(=O)CCc1ccccc1)[C@@H](CCCCN)C(=O)NCCN(C(=O)CCc1ccccc1)[C@@H](CCCCN)C(N)=O | 15 µg/mL
* CCCCCCCCCCCCCCCC(=O)NCCN(C(C)=O)[C@@H](C)C(=O)NCCN(C(C)=O)[C@@H](C)C(=O)NCCN(C(=O)CCCN)[C@@H](Cc1ccccc1)C(=O)NCCN(C(=O)CCCN)[C@@H](Cc1ccccc1)C(=O)NCCN(C(=O)CCCN)[C@@H](Cc1ccccc1)C(N)=O | 40 µg/mL
* CCCCCCCCCCCCCCCC(=O)NCCN(C(=O)CCCN)[C@@H](Cc1ccccc1)C(=O)NCCN(C(=O)CCCN)[C@@H](Cc1ccccc1)C(=O)NCCN(C(=O)CCCN)[C@@H](Cc1ccccc1)C(N)=O | 50 µg/mL
* CCCCCCCCCCCCCCCC(=O)NCCN(C(=O)CCC(C)C)[C@@H](CCCCN)C(=O)NCCN(C(=O)CCC(C)C)[C@@H](CCCCN)C(N)=O | > 500 µg/mL
* CCCCCCCCCCCCCCCC(=O)NCCN(C(C)=O)[C@@H](C)C(=O)NCCN(C(C)=O)[C@@H](C)C(=O)NCCN(C(=O)CCCN)[C@@H](CCCCN)C(=O)NCCN(C(=O)CCCN)[C@@H](CCCCN)C(=O)NCCN(C(=O)CCCN)[C@@H](CCCCN)C(N)=O | 100 µg/mL
* CCCCCCCCCCCCCCCC(=O)NCCN(C(=O)CCCN)[C@@H](Cc1ccccc1)C(=O)NCCN(C(=O)CCCN)[C@@H](Cc1ccccc1)C(=O)NCCN(C(=O)CCCN)[C@@H](Cc1ccccc1)C(=O)NCCN(C(=O)CCCN)[C@@H](Cc1ccccc1)C(=O)NCCN(C(=O)CCCN)[C@@H](Cc1ccccc1)C(N)=O | 20 µg/mL
